B1: SFRS1 (parent)
chain: RDIDLKNRRGGPPFAFVEFEDPRD

Variants of: B1
test-details: protein stability index of a GFP-peptide fusion (GPS, HEK-293T) (PSI 1-6); higher = more stable;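 also: lentivirally expressed fusions sorted by FACS into six bins by GFP to DsRed ratio, PSI derived from sequencing read proportions per bin multiplied by bin number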
condition: c terminus: a fixed tail appended
Decide by protein stability index: equal to or exceeding 4 means Met, less means Not met.

Would you please look over these solved cases?
• R9D = Met
• D21I = Not met
• V17M = Met

Exam item: Check if protein stability index >= 4 (inclusive). Item: `D4L`
Marked response: Not met

Exam item: Check if protein stability index >= 4 (inclusive). Item: `I3R`
Marked response: Not met

Exam item: Check if protein stability index >= 4 (inclusive). Item: `P22F`
Marked response: Not met

Exam item: Check if protein stability index >= 4 (inclusive). Item: `D2V`
Marked response: Not met

Exam item: Check if protein stability index >= 4 (inclusive). Item: `D21K`
Marked response: Not met

Exam item: Check if protein stability index >= 4 (inclusive). Item: `R8H`
Marked response: Not met

Exam item: Check if protein stability index >= 4 (inclusive). Item: `P12C`
Marked response: Met

Exam item: Check if protein stability index >= 4 (inclusive). Item: `P12W`
Marked response: Not met

Exam item: Check if protein stability index >= 4 (inclusive). Item: `A15V`
Marked response: Not met

Exam item: Check if protein stability index >= 4 (inclusive). Item: `K6P`
Marked response: Not met
